Provenance of the data: patent US9682990B2

Tested on: HCT-116 (Colon)
Assay: NCI Developmental Therapeutics antiproliferative assay, HCT-116
Assay type: cell-based, human
The following compounds are listed with their measured GI50 values.
Please give a number only; it is taken to be in µM.

Answered examples (3):
> print(dat)
                                   compound  value.reported
1  O=C1c2ccccc2-c2c1c1ccccc1c(=O)n2C[C@H](O)[C@H](O)[C@H](O)[C@H](O)CO [Compound 17h]            4.17
2  C[C@H](O)Cn1c2c(c3ccccc3c1=O)C(=O)c1ccccc1-2 [Compound 27c]            5.75
3  C[C@@H](O)Cn1c2c(c3ccccc3c1=O)C(=O)c1ccccc1-2 [Compound 27a]            5.52

IN: Please look at this compound and report its GI50: NC[C@H](O)Cn1c2c(c3ccccc3c1=O)C(=O)c1ccccc1-2 [Compound 27d]
OUT: 0.263

IN: Please look at this compound and report its GI50: COc1cc2c3c(n(C[C@H](O)CO)c(=O)c2cc1OC)-c1ccccc1C3=O [Compound 29]
OUT: 0.23

----------
Test system: MCF7 (Breast)
Test: NCI Developmental Therapeutics antiproliferative assay, MCF7
Format: cell-based, human
The following compounds are listed with their measured GI50 values.
Please give a number only; it is taken to be in nM.

Answered examples (3):
> print(dat)
                                   compound  value.reported
1  O=C1c2ccccc2-c2c1c1ccccc1c(=O)n2C[C@H](O)[C@H](O)[C@H](O)CO [Compound 17b]            1380
2  O=C1c2ccccc2-c2c1c1ccccc1c(=O)n2C[C@@H](O)[C@@H](O)[C@H](O)CO [Compound 17e]            1900
3  C[C@@H](O)Cn1c2c(c3ccccc3c1=O)C(=O)c1ccccc1-2 [Compound 27a]            3230

IN: Please look at this compound and report its GI50: O=C1c2ccccc2-c2c1c1ccccc1c(=O)n2C[C@@H](O)[C@H](O)[C@H](O)CO [Compound 17a]
OUT: 4570

IN: Please look at this compound and report its GI50: NC[C@H](O)Cn1c2c(c3ccccc3c1=O)C(=O)c1ccccc1-2 [Compound 27d]
OUT: 198

IN: Please look at this compound and report its GI50: C[C@H](O)Cn1c2c(c3ccccc3c1=O)C(=O)c1ccccc1-2 [Compound 27c]
OUT: 3800

IN: Please look at this compound and report its GI50: O=C1c2ccccc2-c2c1c1ccccc1c(=O)n2C[C@H](O)[C@@H](O)[C@H](O)CO [Compound 17d]
OUT: 1740

IN: Please look at this compound and report its GI50: COc1cc2c3c(n(C[C@H](O)CO)c(=O)c2cc1OC)-c1ccccc1C3=O [Compound 29]
OUT: 97
